# target.desc: iNOS (Type 2) (Rattus norvegicus, UniProt Q06518)
# Sequence (Q06518 whole entry, looked up): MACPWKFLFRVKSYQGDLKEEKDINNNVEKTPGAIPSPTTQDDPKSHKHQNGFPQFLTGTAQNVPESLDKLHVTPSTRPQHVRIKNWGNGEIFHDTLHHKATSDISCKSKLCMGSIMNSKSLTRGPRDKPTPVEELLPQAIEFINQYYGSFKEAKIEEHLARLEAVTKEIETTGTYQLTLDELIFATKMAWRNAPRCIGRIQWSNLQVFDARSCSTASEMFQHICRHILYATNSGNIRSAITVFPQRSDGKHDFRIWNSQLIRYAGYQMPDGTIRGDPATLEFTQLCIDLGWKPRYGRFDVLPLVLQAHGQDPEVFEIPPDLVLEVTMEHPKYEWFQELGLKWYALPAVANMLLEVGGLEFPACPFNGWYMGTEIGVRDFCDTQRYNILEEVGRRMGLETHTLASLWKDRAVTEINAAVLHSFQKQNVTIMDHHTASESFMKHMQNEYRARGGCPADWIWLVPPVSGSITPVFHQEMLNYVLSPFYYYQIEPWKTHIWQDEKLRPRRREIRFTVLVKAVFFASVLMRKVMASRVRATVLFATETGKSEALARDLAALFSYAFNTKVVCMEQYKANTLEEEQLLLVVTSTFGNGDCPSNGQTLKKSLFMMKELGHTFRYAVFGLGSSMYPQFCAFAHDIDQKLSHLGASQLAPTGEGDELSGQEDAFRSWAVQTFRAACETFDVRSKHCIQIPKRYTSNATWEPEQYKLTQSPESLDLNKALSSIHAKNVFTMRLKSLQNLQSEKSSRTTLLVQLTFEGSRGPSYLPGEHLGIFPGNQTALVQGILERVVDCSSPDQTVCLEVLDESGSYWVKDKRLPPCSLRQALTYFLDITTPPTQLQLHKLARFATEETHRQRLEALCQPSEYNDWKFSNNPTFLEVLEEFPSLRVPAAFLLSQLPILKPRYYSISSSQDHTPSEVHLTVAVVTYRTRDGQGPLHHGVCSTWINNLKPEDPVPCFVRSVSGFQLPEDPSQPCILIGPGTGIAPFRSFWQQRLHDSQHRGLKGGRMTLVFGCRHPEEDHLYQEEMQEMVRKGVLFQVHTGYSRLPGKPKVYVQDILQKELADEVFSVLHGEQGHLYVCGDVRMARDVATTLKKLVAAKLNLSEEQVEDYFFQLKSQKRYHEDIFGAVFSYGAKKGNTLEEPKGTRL
# protocol.summary: biochemical
# Assay type: biochemical
# applied.conditions: mean of one to four independent experiments; LPS-treated rat lung crude enzyme; read-out: IC50 value, iNOS (Type 2)
experimental.endpoint: IC50
Answer by giving the amount and then stating its unit.

Any idea what its IC50 is? The compound is N=C(Nc1cccc(CN)c1)N[N+](=O)[O-] [Example 34]
6.76 µM

Any idea what its IC50 is? The compound is CC(=N)NCCC[C@H](N)C(=O)O [L-NIO, NG-iminoethyl-L-ornithine, reference compound]
0.458 µM

====

# target.desc: E-cNOS (Type 3) (Bos taurus)
# Construct: the resulting supernatant was used as the crude enzyme sample of E-cNOS; endogenous in cells; host or cells: CPAE (cow pulmonary arterial endothelium cells), 1% Triton X-100 extract, 100,000 x g supernatant
# protocol.summary: biochemical
# applied.conditions: mean of one to four independent experiments; crude enzyme, 100 nM L-[3H]arginine; read-out: IC50 value, E-cNOS (Type 3)
pIC50: −log10 of the molar value. Counter-ions that a name gives are not always drawn.
Cut-off 6 on pIC50, inclusive. At or above means 1; below means 0.

Has CCN=C(N)Nc1cccc(CNC)c1 [Example 376, dihydrochloride] a recorded pIC50 greater than or equal to 6?
1

Has CCSC(=N)Nc1cccc(C(N)CC)c1 (centres unmarked) [Example 177, dihydrochloride] a recorded pIC50 greater than or equal to 6?
1

Has CCN=C(N)Nc1cccc(C2(N)CCCC2)c1 [Example 236, dihydrochloride] a recorded pIC50 greater than or equal to 6?
1

Has CSC(=N)Nc1cccc(C2(N)CCC2)c1 [Example 160, dihydrochloride] a recorded pIC50 greater than or equal to 6?
1

Has CCSC(=N)Nc1cccc(CN)c1Cl [Example 137, dihydrochloride] a recorded pIC50 greater than or equal to 6?
1

Has CCSC(=N)Nc1cccc(CN(C)C)c1 [Example 372] a recorded pIC50 greater than or equal to 6?
1

Has CCSC(=N)Nc1cccc(CNC)c1 [Example 47, dihydrochloride] a recorded pIC50 greater than or equal to 6?
1

Has CCSC(=N)Nc1ccc(N(C)C)c(CN)c1.Cl.Cl.Cl [Example 270, trihydrochloride] a recorded pIC50 greater than or equal to 6?
0

Has CCSC(=N)Nc1cccc(C(C)N)c1 (centres unmarked) [Example 175, dihydrochloride] a recorded pIC50 greater than or equal to 6?
1

Has CCOc1ccc(NC(=N)SCC)cc1CN.Cl.Cl [Example 324, dihydrochloride] a recorded pIC50 greater than or equal to 6?
0

Has CCN=C(N)Nc1cccc(CN)c1Cl.Cl.Cl [Example 538, dihydrochloride] a recorded pIC50 greater than or equal to 6?
0

Has CCSC(=N)Nc1ccc(F)c(CN)c1 [Example 317, dihydrochloride] a recorded pIC50 greater than or equal to 6?
1

Has CCSC(=N)Nc1ccc(OCc2ccccc2)c(CN)c1.Cl.Cl [Example 337, dihydrochloride] a recorded pIC50 greater than or equal to 6?
0

Has CCN=C(N)Nc1cccc(CN)c1C [Example 533, dihydrochloride] a recorded pIC50 greater than or equal to 6?
0

Has CSC(=N)Nc1cccc(C2(N)CCCC2)c1 [Example 151, dihydrochloride] a recorded pIC50 greater than or equal to 6?
1

Has CCSC(=N)Nc1ccc(CCN)cc1.Cl.Cl [Example 104, dihydrochloride] a recorded pIC50 greater than or equal to 6?
1

Has CSC(=N)Nc1cccc(C(C)(C)N)c1.Cl.Cl [Example 5, dihydrochloride] a recorded pIC50 greater than or equal to 6?
1

Has NC(=N[N+](=O)[O-])Nc1cccc(C2(N)CCCC2)c1 [Example 171, hydrochloride] a recorded pIC50 greater than or equal to 6?
1

Has N=C(Nc1cccc(C2(N)CCC2)c1)N[N+](=O)[O-] [Example 173] a recorded pIC50 greater than or equal to 6?
1

Has CCNc1ccc(NC(=N)SCC)cc1CN(C(=O)OC(C)(C)C)C(=O)OC(C)(C)C [Example 458] a recorded pIC50 greater than or equal to 6?
0

Has CCN=C(N)Nc1cccc(CCN)c1 [Example 543, dihydrochloride] a recorded pIC50 greater than or equal to 6?
0

Has CC(C)(N)c1cccc(NC(N)=N[N+](=O)[O-])c1.Cl [Example 7, hydrochloride] a recorded pIC50 greater than or equal to 6?
1
